System: 786-0
Assay: NCI tumour cell line growth inhibition, 48 h
Active and inactive are the calls of the source. Cut-off read from the data, not from the text of the source: active = GI50 up to about 1.1 µM and inactive = higher.
value.kind: GI50

> print(dat)
                                   compound  system.name           data.value
1  CC(=O)OC1(C#N)CC2OC1C1N=NN(C(=O)OC(C)(C)C)C21 (stereo not drawn)        786-0  > 100 µM (inactive)
2  COc1ccc(-c2cc(-c3ccco3)c(C#N)c(=O)[nH]2)cc1        786-0     91 µM (inactive)
3  CC(=O)Oc1ccc(/C=C/C(=O)O[C@@H](C)[C@H](C)OC(=O)/C=C/c2ccc(OC(C)=O)c(OC(C)=O)c2)cc1OC(C)=O        786-0   12.1 µM (inactive)
